target: human LPA1 (Homo sapiens, UniProt Q92633); test: LPA1 functional antagonist assay (LPA-induced calcium flux); details: CHO cells overexpressing human LPA1, 10 nM LPA, read-out: hLPA1 IC50
Sequence (Q92633 whole entry): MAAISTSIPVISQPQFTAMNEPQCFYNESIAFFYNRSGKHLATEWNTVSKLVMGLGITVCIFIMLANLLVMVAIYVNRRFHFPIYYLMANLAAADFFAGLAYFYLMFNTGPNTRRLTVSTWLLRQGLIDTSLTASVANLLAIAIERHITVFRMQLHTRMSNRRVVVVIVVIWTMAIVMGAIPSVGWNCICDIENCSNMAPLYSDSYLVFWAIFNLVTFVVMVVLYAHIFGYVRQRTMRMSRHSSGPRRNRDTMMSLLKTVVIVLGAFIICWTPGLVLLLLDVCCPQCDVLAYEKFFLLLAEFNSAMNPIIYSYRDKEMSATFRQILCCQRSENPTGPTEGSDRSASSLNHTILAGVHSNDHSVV
The entries below come with measured pIC50 values attached.
Scale explanation: pIC50 corresponds to minus log10 of a concentration expressed in moles per litre.

Known results for molecules:
Molecule: CCCCCOC(=O)NCc1c(-c2ccc(O[C@H]3CCC[C@H](C(=O)O)C3)cn2)cnn1C
pIC50: 7.80

Molecule: CCCCOC(=O)N(C)Cc1c(-c2ccc(O[C@H]3CCC[C@H](C(=O)O)C3)cn2)cnn1C
pIC50: 6.61

Now look at this one.
For the record Cc1nc(-c2cnn(C)c2CNC(=O)OCc2cccc(F)c2)ccc1O[C@H]1CCC[C@H](C(=O)O)C1 , what value of pIC50 is listed for human LPA1 (Homo sapiens, UniProt Q92633)?
7.92

====

target: human LPA1 (Homo sapiens); assay: LPA1 functional antagonist assay (LPA-induced calcium flux); settings: CHO cells overexpressing human LPA1, 10 nM LPA, read-out: hLPA1 IC50
pIC50: −log10 of the molar value.
Returns condition met if the recorded pIC50 is greater than or equal to 7, and condition not met otherwise.

Some solved entries appear below for comparison.
Compound: Cc1nc(-c2cnn(C)c2CNC(=O)OCc2ccccc2)ncc1O[C@H]1CCC[C@H](C(=O)O)C1 [Example 37]
Target Entity: human LPA1 (Homo sapiens)
Class Label: condition met

Compound: Cc1cccc(COC(=O)NCc2c(-c3ccc(O[C@H]4CCC[C@H](C(=O)O)C4)c(C)n3)cnn2C)c1 [Example 15]
Target Entity: human LPA1 (Homo sapiens)
Class Label: condition met

Compound: CC(C)COC(=O)NCc1c(-c2ccc(O[C@H]3CCC[C@H](C(=O)O)C3)cn2)cnn1C [Example 17]
Target Entity: human LPA1 (Homo sapiens)
Class Label: condition not met

Compound: Cc1nc(-c2cnn(C)c2CNC(=O)OCc2ccccc2)cnc1O[C@H]1CCC[C@H](C(=O)O)C1 [Example 31]
Target Entity: human LPA1 (Homo sapiens)
Class Label: condition met

Compound: CN(Cc1c(-c2ccc(O[C@H]3CCC[C@H](C(=O)O)C3)cn2)cnn1C)C(=O)OCc1cc(F)ccc1F [Example 10]
Target Entity: human LPA1 (Homo sapiens)
Class Label: condition not met

pIC50 >= 7 for Cc1nc(-c2cnn(C)c2CNC(=O)OCC(C)C)ccc1O[C@H]1CCC[C@H](C(=O)O)C1 [Example 28] ?
condition met

pIC50 >= 7 for Cc1nc(-c2cnn(C)c2CN(C)C(=O)OCc2ccccc2)ccc1O[C@H]1CCC[C@H](C(=O)O)C1 [Example 32] ?
condition not met

pIC50 >= 7 for Cc1nc(-c2cnn(C)c2CNC(=O)OCC(C)C)ncc1O[C@H]1CCC[C@H](C(=O)O)C1 [Example 38] ?
condition not met

pIC50 >= 7 for CC[C@H](C)COC(=O)NCc1c(-c2ccc(O[C@H]3CCC[C@H](C(=O)O)C3)c(C)n2)cnn1C [Example 34] ?
condition met

pIC50 >= 7 for Cc1nc(-c2cnn(C)c2CNC(=O)OCC(C)(C)C)ccc1O[C@H]1CCC[C@H](C(=O)O)C1 [Example 27] ?
condition met

pIC50 >= 7 for Cn1ncc(-c2ccc(O[C@H]3CCC[C@H](C(=O)O)C3)cn2)c1CNC(=O)OCC(C)(C)C [Example 14] ?
condition not met

pIC50 >= 7 for CCCOC(=O)NCc1c(-c2ccc(O[C@H]3CCC[C@H](C(=O)O)C3)c(C)n2)cnn1C [Example 20] ?
condition not met

pIC50 >= 7 for CCCCCOC(=O)NCc1c(-c2ccc(O[C@H]3CCC[C@H](C(=O)O)C3)c(C)n2)cnn1C [Example 19] ?
condition met

====

molecular target: human LPA1 (Homo sapiens, UniProt Q92633); assay: LPA1 functional antagonist assay (LPA-induced calcium flux); settings: CHO cells overexpressing human LPA1, 10 nM LPA, read-out: hLPA1 IC50
Assay Endpoint: pIC50
Scale explanation: pIC50 corresponds to minus log10 of a concentration expressed in moles per litre.

Cpd Smiles: CCCCCCOC(=O)NCc1c(-c2ccc(O[C@H]3CCC[C@H](C(=O)O)C3)c(C)n2)cnn1C
Value Measured: 7.85
--
Cpd Smiles: Cc1nc(-c2cnn(C)c2CNC(=O)OCC(C)C)cnc1O[C@H]1CCC[C@H](C(=O)O)C1
Value Measured: 5.92

Now look at this one.
For the molecule shown here, CCCCOC(=O)Nc1c(-c2ncc(O[C@H]3CCC[C@H](C(=O)O)C3)c(C)n2)cnn1C , give the reported pIC50.
6.62

====

Target: human LPA1 (Homo sapiens)
Experiment: LPA1 functional antagonist assay (LPA-induced calcium flux)
Conditions: CHO cells overexpressing human LPA1, 10 nM LPA, read-out: hLPA1 IC50
Description: The effectiveness of compounds of the present invention as LPA1 inhibitors can be determined in an LPA1 functional antagonist assay as follows: The cells were then equilibrated to room temperature for 30 minutes before the assay. […] IC50 values were determined by fitting data to a 4-parameter logistic equation (GraphPad Prism, San Diego Calif.).
Assay Endpoint: IC50 (nM)
Response body: numeric value in nM, unit text excluded.

Compound: Cc1nc(-c2cnn(C)c2NC(=O)OCC2CC2)ncc1O[C@H]1CCC[C@H](C(=O)O)C1
Assay Endpoint: IC50
Readout Unit: nM
Value Measured: 995

Compound: Cc1nc(-c2cnn(C)c2NC(=O)OC(C)(C)C)ncc1O[C@H]1CCC[C@H](C(=O)O)C1
Assay Endpoint: IC50
Readout Unit: nM
Value Measured: 1520

Compound: Cn1ncc(-c2ccc(O[C@H]3CCC[C@H](C(=O)O)C3)cn2)c1CNC(=O)OCc1ccccc1
Assay Endpoint: IC50
Readout Unit: nM
Value Measured: 20

Now look at this one.
For the compound shown here, Cc1cccc(COC(=O)NCc2c(-c3ccc(O[C@H]4CCC[C@H](C(=O)O)C4)cn3)cnn2C)c1 [Example 7] , give the reported IC50.
280
